# system: Free fatty acid receptor 4 (Homo sapiens)
# assay_method_text: Agonist activity at human GPR120 short isoform expressed in CHOK1 cells assessed as increase in IP1 accumulation after 60 mins by HTRF assay
# Format: functional, cell-based, CHO-K1
measured_endpoint: EC50

Here are 4 compounds together with their reported answers.
| substance_smiles | measured_endpoint | recorded_measurement |
| --- | --- | --- |
| CO[C@H]1C[C@H](Oc2cc(F)c(F)c(-c3ccc4c(c3)CC[C@H](CCC(=O)O)O4)n2)C1 | EC50 | 0.035 µM |
| COc1cc(OC2CCC2)cc(-c2ccc3c(c2)CC[C@H](CCC(=O)O)O3)c1F | EC50 | 0.015 µM |
| O=C(O)CC[C@@H]1CCc2cc(-c3cc(OC(F)(F)F)ccc3F)ccc2O1 | EC50 | 0.18 µM |
| COc1cc(OC2CC2)cc(-c2ccc3c(c2)CC[C@H](CCc2nnn[nH]2)O3)c1F | EC50 | 0.051 µM |

# input for lookup
# query: EC50 of entry "COc1cc(OC2CCC2)nc(-c2ccc3c(c2)CC[C@H](CCC(=O)O)O3)c1F" 0.015 µM

----------
# assay_method_text: Oral bioavailability in rat plasma at 2 mg/kg by LC/MS/MS analysis
# Format: ADME, organism-based
measured_endpoint: bioavailability
Respond with the figure and its unit, in that order.

For the compound "CO[C@H]1C[C@H](Oc2cc(F)c(F)c(-c3ccc4c(c3)CC[C@H](CCC(=O)O)O4)n2)C1" , what bioavailability is on record? 93%

----------
# assay_method_text: Terminal half life in rat plasma at 0.1 mg/kg administered as iv casette dose by LC/MS/MS analysis
# Type: ADME, organism-based
# assay_setup: read-out: beta t1/2 (converted)
Quick list: half-life per entry.
Please make sure the unit comes right after the number.

Field: example entries. Status: answers known.
| substance_smiles | half-life |
| --- | --- |
| COc1cc(Oc2ncc(C)s2)cc(-c2ccc3c(c2)CC[C@H](CCC(=O)O)O3)c1F | 1.2 h |
| O=C(O)CC[C@H]1CCc2cc(-c3nc(OC4CCC4)ccc3F)ccc2O1 | 0.74 h |
| O=C(O)CC[C@H]1CCc2cc(-c3cc(OC4CCC4)cc(F)c3F)ccc2O1 | 1.3 h |
| CO[C@H]1C[C@H](Oc2cc(F)c(F)c(-c3ccc4c(c3)CC[C@H](CCC(=O)O)O4)n2)C1 | 2.1 h |
| O=C(O)CC[C@H]1CCc2cc(-c3cc(OC(F)(F)F)ccc3F)ccc2O1 | 1.3 h |
| COc1cc(O[C@H]2C[C@H](OC)C2)nc(-c2ccc3c(c2)CC[C@H](CCC(=O)O)O3)c1F | 2.4 h |

What value of half-life has been recorded for this entry: "Cc1cnc(Oc2cc(Cl)c(F)c(-c3ccc4c(c3)CC[C@H](CCC(=O)O)O4)c2)s1" 0.93 h

----------
# assay_method_text: Intrinsic clearance in rat plasma at 0.1 mg/kg administered as iv casette dose by LC/MS/MS analysis
# Type: ADME, organism-based
# assay_setup: in vivo
Could you label it True if measured CL is 200 L/h/kg or higher, and False otherwise?

# count of solved cases: 5
| substance_smiles | class_assignment |
| --- | --- |
| O=C(O)CC[C@H]1CCc2cc(-c3cc(OC4CCC4)cc(F)c3F)ccc2O1 | True |
| COc1cc(Oc2ncc(C)s2)cc(-c2ccc3c(c2)CC[C@H](CCC(=O)O)O3)c1F | True |
| O=C(O)CC[C@H]1CCc2cc(-c3nc(OC4CCC4)ccc3F)ccc2O1 | True |
| CO[C@H]1C[C@H](Oc2cc(F)c(F)c(-c3ccc4c(c3)CC[C@H](CCC(=O)O)O4)n2)C1 | False |
| COc1cc(O[C@H]2C[C@H](OC)C2)nc(-c2ccc3c(c2)CC[C@H](CCC(=O)O)O3)c1F | False |

Does the compound "O=C(O)CC[C@H]1CCc2cc(-c3cc(OC(F)(F)F)ccc3F)ccc2O1" have recorded CL that is 200 L/h/kg or more? True

Item: "Cc1cnc(Oc2cc(Cl)c(F)c(-c3ccc4c(c3)CC[C@H](CCC(=O)O)O4)c2)s1" True

----------
# assay_method_text: Plasma concentration in GPR120 knockout C57BL/6 transverse aortic constriction mouse at 150 mg/kg, po measured at 3 hrs
# Format: ADME, organism-based
# assay_setup: C57BL/6, mouse
measured_endpoint: concentration at 3 h

| substance_smiles | concentration at 3 h |
| --- | --- |
| CO[C@H]1C[C@H](Oc2cc(F)c(F)c(-c3ccc4c(c3)CC[C@H](CCC(=O)O)O4)n2)C1 | 53.4 µM |

As a next step, examine the compound that follows.
Value lookup for concentration at 3 h; key = "COc1cc(O[C@H]2C[C@H](OC)C2)nc(-c2ccc3c(c2)CC[C@H](CCC(=O)O)O3)c1F" 27.6 µM

----------
# system: Free fatty acid receptor 1 (Homo sapiens, UniProt O14842)
# Sequence (O14842 whole entry): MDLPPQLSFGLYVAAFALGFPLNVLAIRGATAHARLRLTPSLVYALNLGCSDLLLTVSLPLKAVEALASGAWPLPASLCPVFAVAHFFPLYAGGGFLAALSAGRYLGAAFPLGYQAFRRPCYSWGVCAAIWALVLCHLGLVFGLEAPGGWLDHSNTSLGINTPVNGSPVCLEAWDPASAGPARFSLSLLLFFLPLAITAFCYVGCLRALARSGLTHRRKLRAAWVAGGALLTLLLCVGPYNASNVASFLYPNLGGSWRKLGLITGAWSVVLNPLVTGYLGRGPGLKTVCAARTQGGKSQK
# assay_method_text: Agonist activity at human GPR40 expressed in HEK293 cells assessed as increase in IP1 accumulation after 60 mins by HTRF assay
pEC50: −log10 of the molar value.
measured_endpoint: pEC50

Here's what some known entries look like.
| substance_smiles | system | recorded_measurement |
| --- | --- | --- |
| COc1cc(O[C@H]2C[C@H](OC)C2)cc(-c2ccc3c(c2)CC[C@H](CCc2nnn[nH]2)O3)c1F | Free fatty acid receptor 1 (Homo sapiens, UniProt O14842) | < 5.00 |
| O=C(O)CC[C@H]1CCc2cc(-c3cc(OC4CCC4)ccc3F)ccc2O1 | Free fatty acid receptor 1 (Homo sapiens, UniProt O14842) | 5.44 |
| O=C(O)[C@@H]1C[C@H]1[C@H]1CCc2cc(-c3cc(OC(F)(F)F)ccc3F)ccc2O1 | Free fatty acid receptor 1 (Homo sapiens, UniProt O14842) | < 5.00 |
| Cc1cnc(Oc2cc(Cl)c(F)c(-c3ccc4c(c3)CC[C@H](CCC(=O)O)O4)c2)s1 | Free fatty acid receptor 1 (Homo sapiens, UniProt O14842) | < 5.00 |
| COc1cc(OC(F)(F)F)cc(-c2ccc3c(c2)CC[C@H](CCc2nnn[nH]2)O3)c1F | Free fatty acid receptor 1 (Homo sapiens, UniProt O14842) | < 5.00 |

Quick check: pEC50 of "Fc1ccc(OC(F)(F)F)cc1-c1ccc2c(c1)CC[C@H](CCc1nnn[nH]1)O2" ? < 5.00

Now this one: "COc1cc(OC2CCC2)nc(-c2ccc3c(c2)CC[C@H](CCC(=O)O)O3)c1F" < 5.00

How about "O=C(O)CC[C@H]1CCc2cc(-c3cc(OC4CCC4)cnc3F)ccc2O1" ? < 5.00

Another molecule to look at: "O=C(O)[C@H]1C[C@@H]1[C@H]1CCc2cc(-c3cc(OC(F)(F)F)ccc3F)ccc2O1" < 5.00

Same question, "O=C(O)CC[C@H]1CCc2cc(-c3cc(OC4CCC4)ncc3F)ccc2O1" this time 5.70

----------
# assay_method_text: Protein binding in mouse plasma at 2 mg/kg, iv or 30 mg/kg, po by LC/MS/MS analysis
# Assay type: ADME, organism-based
# assay_setup: read-out: PPB (converted)
measured_endpoint: fraction unbound
Enter a number only.

Give the measured fraction unbound of "CO[C@H]1C[C@H](Oc2cc(F)c(F)c(-c3ccc4c(c3)CC[C@H](CCC(=O)O)O4)n2)C1" . 0.0033

----------
# assay_method_text: Clearance in mouse plasma at 2 mg/kg, iv or 30 mg/kg, po by LC/MS/MS analysis
# Format: ADME, organism-based
measured_endpoint: clearance (mL/min/kg)
Numbers only; they are read as mL/min/kg.

Report clearance for "CO[C@H]1C[C@H](Oc2cc(F)c(F)c(-c3ccc4c(c3)CC[C@H](CCC(=O)O)O4)n2)C1" please. 9.9

----------
# system: Free fatty acid receptor 4 (Homo sapiens)
# Sequence (Q5NUL3 whole entry): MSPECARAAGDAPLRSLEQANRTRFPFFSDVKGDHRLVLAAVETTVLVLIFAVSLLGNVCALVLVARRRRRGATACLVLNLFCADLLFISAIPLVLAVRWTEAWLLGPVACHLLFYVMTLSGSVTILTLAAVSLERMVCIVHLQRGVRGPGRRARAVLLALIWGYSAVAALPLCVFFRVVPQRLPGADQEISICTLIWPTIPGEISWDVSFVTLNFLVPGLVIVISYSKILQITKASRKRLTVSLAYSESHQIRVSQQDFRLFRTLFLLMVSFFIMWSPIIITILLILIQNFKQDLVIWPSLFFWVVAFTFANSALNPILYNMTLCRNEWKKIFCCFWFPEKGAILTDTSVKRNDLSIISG
# assay_method_text: Agonist activity at human GPR120 short isoform expressed in CHOK1 cells assessed as increase in IP1 accumulation after 60 mins by HTRF assay
# Type: functional, cell-based, CHO-K1
Reported values of pEC50 for individual entries
For clarity, pEC50 is expressed as the negative log10 of concentration in mol/L.

| substance_smiles | pEC50 |
| --- | --- |
| O=C(O)CC[C@H]1CCc2cc(-c3cc(OC(F)(F)F)cc(Cl)c3F)ccc2O1 | 7.14 |
| COc1cc(O[C@H]2C[C@H](OC)C2)cc(-c2ccc3c(c2)CC[C@H](CCc2nnn[nH]2)O3)c1F | 7.28 |
| O=C(O)CC[C@H]1CCc2cc(-c3cc(OC4CCC4)cc(Cl)c3F)ccc2O1 | 7.40 |
| O=C(O)CC[C@H]1CCc2cc(-c3nc(OC4CCC4)ccc3F)ccc2O1 | 7.52 |
| COc1cc(OC(F)(F)F)cc(-c2ccc3c(c2)CC[C@H](CCc2nnn[nH]2)O3)c1F | 6.89 |

// fetch Free fatty acid receptor 4 (Homo sapiens) pEC50 for "COc1cc(O[C@H]2C[C@H](OC)C2)nc(-c2ccc3c(c2)CC[C@H](CCC(=O)O)O3)c1F" 7.85

Queued: "Cc1cnc(Oc2cc(Cl)c(F)c(-c3ccc4c(c3)CC[C@H](CCC(=O)O)O4)c2)s1" 7.85

How about "O=C(O)CC[C@H]1CCc2cc(-c3cc(OC4CCC4)ncc3F)ccc2O1" ? 6.60

And what about the compound "Fc1ccc(OC(F)(F)F)cc1-c1ccc2c(c1)CC[C@H](CCc1nnn[nH]1)O2" ? 6.48
